# test_description: Thermal stability at 110° C. in an open flask (HPLC purity)
# Type: physicochemical
# measurement_setup: 76 hours at 110° C., open flask
# Experimental: The thermal stability of the delta form at 110° C. in an open flask was compared to that of forms from the prior art.
Structures can show the parent of a compound that is named as a salt.
metric: HPLC purity (%)

INSERT INTO measurements (compound, metric, assay_result) VALUES
  ('CCC[C@H](N[C@@H](C)C(=O)N1[C@H](C(=O)O)C[C@@H]2CCCC[C@@H]21)C(=O)OCC.N=C(N)NCCC[C@H](N)C(=O)O [α form according to EP 1 989 182]', 'HPLC purity (%)', 98.8),
  ('CCC[C@H](N[C@@H](C)C(=O)N1[C@H](C(=O)O)C[C@@H]2CCCC[C@@H]21)C(=O)OCC.N=C(N)NCCC[C@H](N)C(=O)O [Form obtained according to the process of SI 23001]', 'HPLC purity (%)', 86.9),
  ('CCC[C@H](N[C@@H](C)C(=O)N1[C@H](C(=O)O)C[C@@H]2CCCC[C@@H]21)C(=O)OCC.N=C(N)NCCC[C@H](N)C(=O)O [β form according to EP 2 016 051]', 'HPLC purity (%)', 98.3),
  ('CCC[C@H](N[C@@H](C)C(=O)N1[C@H](C(=O)O)C[C@@H]2CCCC[C@@H]21)C(=O)OCC [perindopril L-arginine salt]', 'HPLC purity (%)', 99.5),
  ('CCC[C@H](N[C@@H](C)C(=O)N1[C@H](C(=O)O)C[C@@H]2CCCC[C@@H]21)C(=O)OCC.N=C(N)NCCC[C@H](N)C(=O)O [γ form according to WO 2009/157018]', 'HPLC purity (%)', 93.4);
